target: LRRK2[G2019S] (Homo sapiens, UniProt Q5S007, G2019S)
experimental-protocol: Cell-based NanoBRET target engagement assay in HEK293 cells transfected with LRRK2 (G2019S)-NanoLuc fusion vector
measurement-conditions: compound treatment 1 h
Sequence (Q5S007 whole entry G2019S, the tested form may be a part): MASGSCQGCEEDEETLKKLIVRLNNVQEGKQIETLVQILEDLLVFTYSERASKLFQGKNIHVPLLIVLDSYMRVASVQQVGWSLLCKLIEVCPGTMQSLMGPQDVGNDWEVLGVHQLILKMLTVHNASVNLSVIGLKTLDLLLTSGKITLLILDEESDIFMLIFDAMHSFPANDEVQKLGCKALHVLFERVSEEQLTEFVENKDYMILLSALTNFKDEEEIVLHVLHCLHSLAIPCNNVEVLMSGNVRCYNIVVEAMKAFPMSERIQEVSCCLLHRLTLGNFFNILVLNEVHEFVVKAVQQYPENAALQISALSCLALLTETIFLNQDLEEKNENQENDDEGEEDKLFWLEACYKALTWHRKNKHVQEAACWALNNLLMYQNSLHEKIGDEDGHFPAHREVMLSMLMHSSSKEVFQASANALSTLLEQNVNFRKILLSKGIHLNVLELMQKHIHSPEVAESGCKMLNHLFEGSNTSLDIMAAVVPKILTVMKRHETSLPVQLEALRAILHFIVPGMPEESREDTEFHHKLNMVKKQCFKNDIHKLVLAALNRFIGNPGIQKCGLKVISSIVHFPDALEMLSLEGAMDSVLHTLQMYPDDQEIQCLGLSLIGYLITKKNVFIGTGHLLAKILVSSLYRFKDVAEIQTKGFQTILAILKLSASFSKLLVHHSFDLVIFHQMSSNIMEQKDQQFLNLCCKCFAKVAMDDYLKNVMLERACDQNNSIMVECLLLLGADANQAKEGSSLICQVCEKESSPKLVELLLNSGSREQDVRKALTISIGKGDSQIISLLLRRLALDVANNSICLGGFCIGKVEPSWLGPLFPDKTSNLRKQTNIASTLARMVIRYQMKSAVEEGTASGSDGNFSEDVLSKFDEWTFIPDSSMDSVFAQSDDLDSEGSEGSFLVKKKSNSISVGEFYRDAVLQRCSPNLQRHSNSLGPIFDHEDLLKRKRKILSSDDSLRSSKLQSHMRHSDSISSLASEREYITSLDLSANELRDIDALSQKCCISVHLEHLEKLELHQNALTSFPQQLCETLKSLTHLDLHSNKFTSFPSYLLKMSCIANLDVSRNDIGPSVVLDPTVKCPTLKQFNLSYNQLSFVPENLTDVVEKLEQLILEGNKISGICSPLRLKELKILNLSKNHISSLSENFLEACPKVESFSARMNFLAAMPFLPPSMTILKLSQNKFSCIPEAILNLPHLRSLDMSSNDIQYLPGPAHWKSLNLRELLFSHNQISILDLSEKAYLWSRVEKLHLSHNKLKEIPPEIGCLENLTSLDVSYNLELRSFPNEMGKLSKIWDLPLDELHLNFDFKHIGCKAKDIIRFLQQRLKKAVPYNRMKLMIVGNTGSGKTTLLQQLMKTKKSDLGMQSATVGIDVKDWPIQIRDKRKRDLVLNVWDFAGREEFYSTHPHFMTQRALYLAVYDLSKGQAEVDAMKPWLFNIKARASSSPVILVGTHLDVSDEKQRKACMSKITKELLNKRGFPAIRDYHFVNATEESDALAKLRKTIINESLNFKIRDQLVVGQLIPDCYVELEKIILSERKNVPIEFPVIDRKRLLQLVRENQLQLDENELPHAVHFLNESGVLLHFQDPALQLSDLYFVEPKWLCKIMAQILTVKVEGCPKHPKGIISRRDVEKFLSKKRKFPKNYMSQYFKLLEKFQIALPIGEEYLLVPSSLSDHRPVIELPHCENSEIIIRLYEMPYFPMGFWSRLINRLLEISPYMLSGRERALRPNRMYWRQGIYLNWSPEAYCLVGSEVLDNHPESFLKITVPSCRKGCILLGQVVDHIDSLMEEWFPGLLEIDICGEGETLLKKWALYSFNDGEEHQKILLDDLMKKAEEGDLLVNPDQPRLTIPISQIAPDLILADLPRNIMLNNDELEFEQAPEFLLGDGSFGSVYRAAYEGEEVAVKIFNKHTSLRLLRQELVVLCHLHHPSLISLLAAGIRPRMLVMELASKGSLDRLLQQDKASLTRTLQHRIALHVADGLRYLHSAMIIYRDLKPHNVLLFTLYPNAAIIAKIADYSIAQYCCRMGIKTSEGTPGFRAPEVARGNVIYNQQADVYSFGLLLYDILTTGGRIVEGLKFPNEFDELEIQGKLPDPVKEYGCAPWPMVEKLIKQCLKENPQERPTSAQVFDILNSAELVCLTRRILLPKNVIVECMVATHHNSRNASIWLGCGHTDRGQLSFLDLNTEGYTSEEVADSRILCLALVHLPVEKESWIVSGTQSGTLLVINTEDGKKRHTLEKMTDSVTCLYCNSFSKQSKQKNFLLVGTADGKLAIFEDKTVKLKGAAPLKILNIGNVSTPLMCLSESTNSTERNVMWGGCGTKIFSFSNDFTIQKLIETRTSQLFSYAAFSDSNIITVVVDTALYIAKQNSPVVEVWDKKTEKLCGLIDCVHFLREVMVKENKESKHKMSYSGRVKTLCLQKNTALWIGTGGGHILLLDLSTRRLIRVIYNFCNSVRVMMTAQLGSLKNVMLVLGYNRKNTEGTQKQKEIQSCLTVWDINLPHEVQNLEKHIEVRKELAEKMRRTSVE
Parameter: IC50. Scope: all listed entries.

[
  {
    "molecule": "Cn1nc(-c2n[nH]c3ccc(OC4(C)CC4)cc23)cc(N2CCCN(CC(C)(C)O)CC2)c1=O",
    "IC50": "≤ 50 nM"
  },
  {
    "molecule": "Cn1nc(-c2n[nH]c3ccc(OC4(C)CC4)cc23)cc(N2CCNCC(C)(O)C2)c1=O (stereo not shown)",
    "IC50": "≥ 100 nM"
  },
  {
    "molecule": "Cn1nc(-c2n[nH]c3ccc(OC4(C)CC4)cc23)cc(N2CCOCC3(CC3)C2)c1=O",
    "IC50": "≤ 50 nM"
  },
  {
    "molecule": "CC(C)Oc1ccc2[nH]nc(-c3cnnc(N4CCC(O)C4)c3)c2c1 (stereo in doubt)",
    "IC50": "≥ 100 nM"
  }
]

###

target: LRRK2[G2019S] (Homo sapiens, UniProt Q5S007, G2019S)
experimental-protocol: Cell-based NanoBRET target engagement assay in HEK293 cells transfected with LRRK2 (G2019S)-NanoLuc fusion vector
measurement-conditions: compound treatment 1 h
Experimental: Example C. Cell-Based NanoBRET Target Engagement Assay in 11EK293 Cells Transiently Transfected with LRRK2 WT- or LRRK2 (G2019S)-Nano Luc Fusion Vector H1EK293 (ATCC) cells were transfected with […] LRRK2 WT or LRRK2 (G2019S) and 9 μg transfection carrier DNA. […] LRRK2 WT and LRRK2 (G2019S) target engagement was measured by NanoBRET assay. […]
pIC50: −log10 of the molar value.
quantity-kind: pIC50

[
  {
    "compound": "CCn1nc(-c2n[nH]c3ccc(OC(C)C)cc23)cc(N2CCOCC2)c1=O",
    "target": "LRRK2[G2019S] (Homo sapiens, UniProt Q5S007, G2019S)",
    "observed-result": "7.00 to 7.30"
  },
  {
    "compound": "CC1(Oc2ccc3[nH]nc(-c4cc(N5CC(C)(C)C6COCC65)c(=O)n(C5CC5)n4)c3c2)CC1 (stereo not shown)",
    "target": "LRRK2[G2019S] (Homo sapiens, UniProt Q5S007, G2019S)",
    "observed-result": "≥ 7.30"
  },
  {
    "compound": "CC(C)Cn1nc(-c2n[nH]c3ccc(OC(C)C)cc23)cc(N2CCOCC2)c1=O",
    "target": "LRRK2[G2019S] (Homo sapiens, UniProt Q5S007, G2019S)",
    "observed-result": "≤ 7.00"
  },
  {
    "compound": "CC(C)Oc1ccc2[nH]nc(-c3cc(N4CCOCC4)c(=O)n(C4CCCC4)n3)c2c1",
    "target": "LRRK2[G2019S] (Homo sapiens, UniProt Q5S007, G2019S)",
    "observed-result": "≥ 7.30"
  },
  {
    "compound": "Cn1nc(-c2n[nH]c3ccc(OC4(C)CC4)cc23)cc(N2CCCOCC2)c1=O",
    "target": "LRRK2[G2019S] (Homo sapiens, UniProt Q5S007, G2019S)",
    "observed-result": "≥ 7.30"
  },
  {
    "compound": "Cn1nc(-c2n[nH]c3ccc(OC4(C)CC4)cc23)cc(N2CCCC(C)(O)CC2)c1=O (stereo not shown)",
    "target": "LRRK2[G2019S] (Homo sapiens, UniProt Q5S007, G2019S)",
    "observed-result": "≥ 7.30"
  },
  {
    "compound": "CC(C)Oc1ccc2[nH]nc(-c3cc(N4CCOCC4)c(=O)n(C)n3)c2c1",
    "target": "LRRK2[G2019S] (Homo sapiens, UniProt Q5S007, G2019S)",
    "observed-result": "≤ 7.00"
  },
  {
    "compound": "Cn1nc(-c2n[nH]c3ccc(OC4(C)CC4)cc23)cc(N2CCC(C)(C)NC(C)(C)C2)c1=O",
    "target": "LRRK2[G2019S] (Homo sapiens, UniProt Q5S007, G2019S)",
    "observed-result": "≤ 7.00"
  },
  {
    "compound": "Cn1nc(-c2n[nH]c3ccc(OC4(C)CC4)cc23)cc(N2CC(F)C(C)(C)C2)c1=O (stereo not shown)",
    "target": "LRRK2[G2019S] (Homo sapiens, UniProt Q5S007, G2019S)",
    "observed-result": "≥ 7.30"
  },
  {
    "compound": "Cn1nc(-c2n[nH]c3ccc(OC4CCC4)cc23)cc(N2CCOCC2)c1=O",
    "target": "LRRK2[G2019S] (Homo sapiens, UniProt Q5S007, G2019S)",
    "observed-result": "≤ 7.00"
  },
  {
    "compound": "Cn1nc(-c2n[nH]c3ccc(OC4(C)CC4)cc23)cc(N2CCOC(CO)CC2)c1=O (stereo not shown)",
    "target": "LRRK2[G2019S] (Homo sapiens, UniProt Q5S007, G2019S)",
    "observed-result": "≥ 7.30"
  },
  {
    "compound": "CN1CCCN(c2cc(-c3n[nH]c4ccc(OC5(C)CC5)cc34)nn(C)c2=O)CC1",
    "target": "LRRK2[G2019S] (Homo sapiens, UniProt Q5S007, G2019S)",
    "observed-result": "≥ 7.30"
  },
  {
    "compound": "Cn1nc(-c2n[nH]c3ccc(OC4(C)CC4)cc23)cc(N2CCCOC(C)(C)C2)c1=O",
    "target": "LRRK2[G2019S] (Homo sapiens, UniProt Q5S007, G2019S)",
    "observed-result": "≥ 7.30"
  },
  {
    "compound": "Cn1nc(-c2n[nH]c3ccc(OC4(C)CC4)cc23)cc(N2CC(O)C(C)(C)C2)c1=O (stereo not shown)",
    "target": "LRRK2[G2019S] (Homo sapiens, UniProt Q5S007, G2019S)",
    "observed-result": "≥ 7.30"
  },
  {
    "compound": "Cc1cc2[nH]nc(-c3cc(N4CCOCC4)c(=O)n(C)n3)c2cc1OC(C)C",
    "target": "LRRK2[G2019S] (Homo sapiens, UniProt Q5S007, G2019S)",
    "observed-result": "≤ 7.00"
  },
  {
    "compound": "C[C@@H]1CN(c2cc(-c3n[nH]c4ccc(OC5(C)CC5)cc34)nn(C)c2=O)C[C@H](C)O1",
    "target": "LRRK2[G2019S] (Homo sapiens, UniProt Q5S007, G2019S)",
    "observed-result": "≥ 7.30"
  }
]

###

target: LRRK2[G2019S] (Homo sapiens, UniProt Q5S007, G2019S)
experimental-protocol: Enzymatic activity inhibition against LRRK2[G2019S] (ADP-Glo kinase assay, LRRKtide substrate)
measurement-conditions: recombinant LRRK2[G2019S] 36 nM, ATP, 1 h at rt, average Ki
Sequence (Q5S007 970-2527 G2019S limits assumed): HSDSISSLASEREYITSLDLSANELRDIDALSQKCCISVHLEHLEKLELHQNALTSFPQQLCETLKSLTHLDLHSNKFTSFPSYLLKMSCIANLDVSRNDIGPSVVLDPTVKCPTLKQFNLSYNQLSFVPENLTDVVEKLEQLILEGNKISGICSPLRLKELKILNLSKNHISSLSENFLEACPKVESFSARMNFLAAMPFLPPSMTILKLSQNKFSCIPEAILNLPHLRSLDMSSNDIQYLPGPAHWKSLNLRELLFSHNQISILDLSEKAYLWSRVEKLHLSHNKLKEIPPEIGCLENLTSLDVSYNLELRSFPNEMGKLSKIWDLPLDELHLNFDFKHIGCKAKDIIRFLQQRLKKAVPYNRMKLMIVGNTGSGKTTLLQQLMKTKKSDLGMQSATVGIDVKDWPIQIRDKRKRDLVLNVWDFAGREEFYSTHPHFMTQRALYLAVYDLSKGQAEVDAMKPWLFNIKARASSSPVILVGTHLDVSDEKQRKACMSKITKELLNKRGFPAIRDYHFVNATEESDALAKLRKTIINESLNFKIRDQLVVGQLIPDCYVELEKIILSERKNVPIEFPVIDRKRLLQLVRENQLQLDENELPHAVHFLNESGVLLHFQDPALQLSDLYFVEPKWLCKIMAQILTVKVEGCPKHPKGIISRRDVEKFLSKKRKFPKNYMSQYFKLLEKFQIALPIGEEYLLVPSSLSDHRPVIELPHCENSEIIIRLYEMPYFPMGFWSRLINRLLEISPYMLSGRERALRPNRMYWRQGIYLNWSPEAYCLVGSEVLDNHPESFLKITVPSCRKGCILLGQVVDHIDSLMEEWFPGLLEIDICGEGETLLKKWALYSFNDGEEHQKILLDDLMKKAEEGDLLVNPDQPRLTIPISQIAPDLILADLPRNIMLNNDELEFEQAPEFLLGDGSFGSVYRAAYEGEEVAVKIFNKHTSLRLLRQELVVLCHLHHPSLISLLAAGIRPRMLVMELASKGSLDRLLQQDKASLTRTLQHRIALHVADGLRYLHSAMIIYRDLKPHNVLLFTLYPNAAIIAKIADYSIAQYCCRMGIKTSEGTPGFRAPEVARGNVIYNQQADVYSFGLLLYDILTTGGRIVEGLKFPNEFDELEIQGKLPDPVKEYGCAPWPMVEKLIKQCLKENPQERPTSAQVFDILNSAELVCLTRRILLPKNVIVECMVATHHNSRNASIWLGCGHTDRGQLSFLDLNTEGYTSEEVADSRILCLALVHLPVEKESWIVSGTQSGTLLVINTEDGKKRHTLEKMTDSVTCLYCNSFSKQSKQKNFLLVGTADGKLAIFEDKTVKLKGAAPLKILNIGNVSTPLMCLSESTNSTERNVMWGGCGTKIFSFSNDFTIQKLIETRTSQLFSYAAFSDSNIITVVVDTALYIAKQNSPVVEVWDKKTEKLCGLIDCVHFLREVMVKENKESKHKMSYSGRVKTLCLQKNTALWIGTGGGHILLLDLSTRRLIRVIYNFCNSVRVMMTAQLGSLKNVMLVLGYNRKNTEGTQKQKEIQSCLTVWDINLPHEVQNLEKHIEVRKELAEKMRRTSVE

[
  {
    "compound": "Cn1nc(-c2n[nH]c3ccc(OC4CCC4)cc23)cc(N2CCOCC2)c1=O",
    "Ki": "≤ 5 nM"
  },
  {
    "compound": "CC(C)Cn1nc(-c2n[nH]c3ccc(OC(C)C)cc23)cc(N2CCOCC2)c1=O",
    "Ki": "5 to 10 nM"
  },
  {
    "compound": "Cn1nc(-c2n[nH]c3ccc(OC4(C)CC4)cc23)cc(N2CCOCC3(CC3)C2)c1=O",
    "Ki": "≤ 5 nM"
  },
  {
    "compound": "Cn1nc(-c2n[nH]c3ccc(OC4(C)CC4)cc23)cc(N2CC(C)(C)C3COCC32)c1=O (stereo not shown)",
    "Ki": "≤ 5 nM"
  },
  {
    "compound": "Cn1nc(-c2n[nH]c3ccc(-n4cccc4C#N)cc23)cc(N2CCOCC2)c1=O",
    "Ki": "10 to 50 nM"
  },
  {
    "compound": "Cn1nc(-c2n[nH]c3ccc(OC4(C)CC4)cc23)cc(N2CCC3(CCC3)C2)c1=O",
    "Ki": "≤ 5 nM"
  },
  {
    "compound": "Cn1nc(-c2n[nH]c3ccc(OC4(C)CC4)cc23)cc(N2CCOCC2)c1=O",
    "Ki": "≤ 5 nM"
  },
  {
    "compound": "CC(C)Oc1cccc2[nH]nc(-c3cc(N4CCOCC4)c(=O)n(C)n3)c12",
    "Ki": "> 100 nM"
  },
  {
    "compound": "CC(C)Oc1ccc2[nH]nc(-c3cc(N4CCOCC4)c(=O)n(C4CC4)n3)c2c1",
    "Ki": "≤ 5 nM"
  },
  {
    "compound": "CC(C)Oc1ccc2[nH]nc(-c3cnnc(N4CC(O)C4)c3)c2c1",
    "Ki": "5 to 10 nM"
  },
  {
    "compound": "Cn1nc(-c2n[nH]c3ccc4c(c23)CCCO4)cc(N2CCOCC2)c1=O",
    "Ki": "> 100 nM"
  },
  {
    "compound": "CC(C)Oc1ccc2[nH]nc(-c3cc(N4CCOCC4)c(=O)n(C4CCCC4)n3)c2c1",
    "Ki": "5 to 10 nM"
  },
  {
    "compound": "CC(C)Oc1ccc2[nH]nc(-c3cnnc(N4CCOCC4)c3)c2c1",
    "Ki": "≤ 5 nM"
  },
  {
    "compound": "Cn1nc(-c2n[nH]c3cc4c(cc23)OCCC4)cc(N2CCOCC2)c1=O",
    "Ki": "> 100 nM"
  },
  {
    "compound": "C[C@@H]1CN(c2cc(-c3n[nH]c4ccc(OC5(C)CC5)cc34)nn(C3CC3)c2=O)C[C@H](C)O1",
    "Ki": "≤ 5 nM"
  },
  {
    "compound": "CC(C)Oc1ccc2[nH]nc(-c3cc(N4CCOCC4)c(=O)n(C)n3)c2c1",
    "Ki": "≤ 5 nM"
  },
  {
    "compound": "Cn1nc(-c2n[nH]c3ccc(OC(F)(F)F)cc23)cc(N2CCOCC2)c1=O",
    "Ki": "> 100 nM"
  },
  {
    "compound": "CC(C)(C#N)c1ccc2cnn(-c3cnnc(N4CCCC4)c3)c2c1",
    "Ki": "50 to 100 nM"
  },
  {
    "compound": "Cc1c(OC(C)C)ccc2[nH]nc(-c3cc(N4CCOCC4)c(=O)n(C)n3)c12",
    "Ki": "> 100 nM"
  },
  {
    "compound": "N#CC1(c2ccc3cnn(-c4cnnc(N5CCCC5)c4)c3c2)CCCCC1",
    "Ki": "> 100 nM"
  },
  {
    "compound": "CC(C)Oc1ccc2[nH]nc(-c3cc(N4CCCC4)c(=O)n(C)n3)c2c1",
    "Ki": "≤ 5 nM"
  },
  {
    "compound": "Cn1nc(-c2n[nH]c3ccc(OC4CC4)cc23)cc(N2CCOCC2)c1=O",
    "Ki": "≤ 5 nM"
  },
  {
    "compound": "Cn1nc(-n2ncc3ccc(C4(C#N)CC4)cc32)cc(N2CCOCC2)c1=O",
    "Ki": "50 to 100 nM"
  },
  {
    "compound": "CC(C)Oc1ccc2[nH]nc(-c3cnnc(N4CCC(O)C4)c3)c2c1 (stereo in doubt)",
    "Ki": "5 to 10 nM"
  },
  {
    "compound": "N#CC1(c2ccc3cnn(-c4cnnc(N5CCCC5)c4)c3c2)CC1",
    "Ki": "> 100 nM"
  },
  {
    "compound": "Cn1nc(-c2n[nH]c3ccc(S(C)(=O)=O)cc23)cc(N2CCOCC2)c1=O",
    "Ki": "> 100 nM"
  },
  {
    "compound": "O=S1(=O)CCCC1c1ccc2cnn(-c3cnnc(N4CCCC4)c3)c2c1 (stereo not shown)",
    "Ki": "> 100 nM"
  },
  {
    "compound": "Cc1cc2[nH]nc(-c3cc(N4CCOCC4)c(=O)n(C)n3)c2cc1OC(C)C",
    "Ki": "10 to 50 nM"
  },
  {
    "compound": "C[C@@H]1CN(c2cc(-c3n[nH]c4ccc(OC5(C)CC5)cc34)nn(C)c2=O)C[C@H](C)O1",
    "Ki": "≤ 5 nM"
  },
  {
    "compound": "CC(C)Oc1ccc2[nH]nc(-c3cnnc(N4CCOCC4)n3)c2c1",
    "Ki": "5 to 10 nM"
  },
  {
    "compound": "CC(C)Oc1ccc2[nH]nc(-c3cnnc(N4CCCC4)c3)c2c1",
    "Ki": "≤ 5 nM"
  }
]
